Target: H-2 I-A^b (purified IA^b MHC class II) (Mus musculus, UniProt P14434+P14483)
Construct: endogenous in cells; host or cells: mouse B-cell lymphoma LB27.4
Sequence (P14434 24-256): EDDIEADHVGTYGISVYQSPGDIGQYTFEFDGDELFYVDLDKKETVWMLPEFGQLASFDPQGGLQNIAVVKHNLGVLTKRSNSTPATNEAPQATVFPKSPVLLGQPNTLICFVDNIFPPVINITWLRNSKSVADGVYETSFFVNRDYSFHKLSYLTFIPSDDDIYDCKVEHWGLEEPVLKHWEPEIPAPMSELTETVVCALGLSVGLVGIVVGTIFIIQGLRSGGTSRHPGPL
Sequence (P14483 28-265): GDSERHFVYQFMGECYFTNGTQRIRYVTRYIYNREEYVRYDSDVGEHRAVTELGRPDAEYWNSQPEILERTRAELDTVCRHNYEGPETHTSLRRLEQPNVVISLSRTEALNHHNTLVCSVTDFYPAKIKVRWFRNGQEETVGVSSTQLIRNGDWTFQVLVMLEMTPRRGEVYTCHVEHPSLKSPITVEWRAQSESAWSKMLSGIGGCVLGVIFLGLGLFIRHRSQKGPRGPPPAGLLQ
Assay: biochemical
Format: binding
Where no end group is shown, it is not given here.
# label = Criterion met if IC50 < 300 nM else Criterion not met

Prompt: Record KLFNDPASPVAGNPH [CBU 1910_83–97] : is its IC50 strictly below 300 nM?
Completion: Criterion not met

Prompt: Record DLRYHAPIYGAVHPR [CBU 1157_177–191] : is its IC50 strictly below 300 nM?
Completion: Criterion met

Prompt: Record RLVGSFPAEERIGRT [CBU 1645_272–286] : is its IC50 strictly below 300 nM?
Completion: Criterion not met

Prompt: Record PWRYIRSFPILASSG [CBU 1157_63–77] : is its IC50 strictly below 300 nM?
Completion: Criterion met

Prompt: Record YDSLTTPTASVCQSE [CBU 1645_196–210] : is its IC50 strictly below 300 nM?
Completion: Criterion not met

Prompt: Record RDSFNNFDASIISKY [CBU 0383_69–83] : is its IC50 strictly below 300 nM?
Completion: Criterion not met

Prompt: Record LSLMLNYPNSADRYY [CBU 1157_108–122] : is its IC50 strictly below 300 nM?
Completion: Criterion not met
